Target: T1, human full-length Notch3 with C-terminal FLAG tag, stably expressed on 293 FlpIn (TREx) cells (human, UniProt Q9UM47 40-2321)
T1 construct: whole, on cells; made by the same strategy as the Notch1 line; also called 293-N3; hN3
Assay: FACS, phage scFv

BINDER: N1wc72 (scFv, V domains shown, phage scFv) VH: EVQLVQSGAEVKKPGASVKVSCKASGYNFTGYYMHWVRQAPGQGLEWMGWINPNSGGTNYAQKFQGRVTMTRDTSISTAYMELSRLRSDDTAVYYCATDSFDYWGKGTMVTVSS VL: QPVLTQPPSASGTPGQRVTISCSGSYSNIGSNYVYWYQQFPGTAPKLLIYTNNQRPSGVPDRFSGSKSGSSASLAISGLRSEDEADYYCAAWDDSVGVLLFGGGTKVTVL
binding result: binds
//
BINDER: hN1S3-032 (scFv, V domains shown, phage scFv) VH: EVQLVQSGAEVKKPGASVKVSCKASGYNFTGYYMHWVRQAPGQGLEWMGWINPNSGGTNYAQKFQGRVTMTRDTSISTAYMELSRLRSDDTAVYYCATDSFDYWGKGTLVTVSS VL: QAVLTQPSSVSGAPGQRVTISCTGSSSNIGAGYDVHWYRQLPGTAPKLLLYGNDNRPSGVPDRFSGSKSGASASLAITGLRADDEADYYCQSYDSSLSGSVFGGGTKVTVL
binding result: binds
//
BINDER: N1wc24 (scFv, V domains shown, phage scFv) VH: EVQLVESGPGLVKPSETLSLTCTVSGGSMTSNFWSWIRQTPGKGLEWIGYVLYTGSTNSNPSLKSRVTMSVDTSKNQVSLTLSSVTAADTAIYYCARGNGWYLPWGRGTMVTVSS VL: QSVLTQPPSVSGAPRQRVTISCSGSSSNIENNIVNWYQQLPGEAPKLLIYYDNLLPSGVSDRFSGSKSGTSASLAISGLQSGDEADYYCAAWDDSLKAVVFGGGTKLTVL
binding result: binds
